target: human TLR7 (Homo sapiens, UniProt Q9NYK1); test: Human TLR7 agonist activity assay (HEK-Blue TLR7 SEAP reporter); settings: HEK-Blue TLR7 cells, 18 h treatment, average where assay performed multiple times, read-out: hTLR7 Agonism EC50
readout_label: EC50 (nM)

{"columns": ["chemical_smiles", "measured_target", "EC50 (nM)"],
 "data": [
  ["CCCCNc1nc(N)nc2cnn(Cc3ncc(C4CC(C)(C)NC(C)(C)C4)cc3OC)c12", "human TLR7 (Homo sapiens, UniProt Q9NYK1)", 209],
  ["COc1cc(C2CCN(C)CC2)cnc1Cn1ncc2nc(N)nc(NCC3CC4(CC4)C3)c21", "human TLR7 (Homo sapiens, UniProt Q9NYK1)", 62],
  ["CCCCNc1nc(N)nc2cnn(Cc3cc(F)c(N4CCN(C(=O)CN5CC(OC)C5)CC4)cc3OC)c12", "human TLR7 (Homo sapiens, UniProt Q9NYK1)", 63.1],
  ["CCCCNc1nc(N)nc2cnn(Cc3ccc(C4CCN(C(=O)CC(C)(C)O)CC4)cc3OC)c12", "human TLR7 (Homo sapiens, UniProt Q9NYK1)", 12.2],
  ["CCC[C@@H](CCO)Nc1nc(N)nc2cnn(Cc3cnc(C4CCN(C5CCOCC5)CC4)cc3OC)c12", "human TLR7 (Homo sapiens, UniProt Q9NYK1)", 6.8]
]}

I = CCC[C@@H](CCO)Nc1nc(N)nc2cnn(Cc3cnc(C4CCN(C(C)C)CC4)cc3OC)c12
II = CCC[C@@H](CCO)Nc1nc(N)nc2cnn(Cc3ncc(C4CCN(C5CC6(CNC6)C5)CC4)cc3OC)c12
I'm curious whether I or II has the smaller EC50 number. Which is it? Respond with the label that goes with your answer. I

---

system: CD69; test: Induction of CD69 in human whole blood; format: cell-based; details: Homo sapiens, 17 h, 100% set to 1 uM of resiquimod, average where assay performed multiple times, read-out: hWB CD69 EC50
readout_label: EC50 (nM)

Here's what some known entries look like.
{"columns": ["molecule", "measured_target", "unit_abbreviation", "EC50"],
 "data": [
  ["COc1cc(C2CCNCC2)cnc1Cn1ncc2nc(N)nc(NCc3cc(C)on3)c21", "CD69", "nM", 118],
  ["CCCCNc1nc(N)nc2cnn(Cc3ccc(C4CCN(C)CC4)cc3OC)c12", "CD69", "nM", 0.065],
  ["COc1cc(C2CCN(CCO)CC2)cnc1Cn1ncc2nc(N)nc(NCc3cc(C)on3)c21", "CD69", "nM", 8.7],
  ["CCCCNc1nc(N)nc2c(C)nn(Cc3ncc(C4CCN(C(C)C)CC4)cc3OC)c12", "CD69", "nM", 18.7],
  ["CCCCNc1nc(N)nc2cnn(Cc3ncc(C4CCN(C(=O)CCO)CC4)cc3OC)c12", "CD69", "nM", 159],
  ["COc1cc(C2CCN(C3CC4(COC4)C3)CC2)cnc1Cn1ncc2nc(N)nc(NCC3CC4(CC4)C3)c21 (stereo not shown)", "CD69", "nM", 7.1],
  ["CCC[C@@H](CCO)Nc1nc(N)nc2cnn(Cc3ncc(C4CCN(C5CCOCC5)CC4)cc3OC)c12", "CD69", "nM", 2.7],
  ["CCC[C@@H](CCO)Nc1nc(N)nc2cnn(Cc3ncc(C4CCN(CCO)CC4)cc3OC)c12", "CD69", "nM", 10.2],
  ["COc1cc(C2CCN(C3CNC3)CC2)cnc1Cn1ncc2nc(N)nc(NCC3CC4(CC4)C3)c21", "CD69", "nM", 69.4],
  ["CCC[C@@H](CCO)Nc1nc(N)nc2cnn(Cc3ncc(C4C[C@@H](C#N)CN4)cc3OC)c12 (mixture of isomers)", "CD69", "nM", 27.8]
]}

A = CCC[C@@H](CCO)Nc1nc(N)nc2cnn(Cc3ncc(C4CCN(C5CN(C(C)C)C5)CC4)cc3OC)c12
B = CCC[C@@H](CCO)Nc1nc(N)nc2cnn(Cc3ccc(C4CN(C(C)C)CCN4)cc3OC)c12 (stereo partly shown)
I'm curious whether A or B has the smaller EC50 number. Which is it? Respond with the label that goes with your answer. B
(B: 0.28 nM, A: 1.1 nM)

a = CCCCNc1nc(N)nc2cnn(Cc3cc(F)c(N4CCN(C(=O)CNCC(C)(C)O)CC4)cc3OC)c12
b = CCC[C@@H](CCO)Nc1nc(N)nc2cnn(Cc3nc(C4CCN(C(C)C)CC4)ccc3OC)c12
c = CCCCNc1nc(N)nc2cnn(Cc3ncc(C4CCN(C5CCCC5)CC4)cc3OC)c12
Order field: EC50 | Direction: descending (largest first) # output: labels, in the requested order a, b, c

---

tested on: CD69; experiment: Induction of CD69 in human whole blood; assay type: cell-based; conditions: Homo sapiens, 17 h, 100% set to 1 uM of resiquimod, average where assay performed multiple times, read-out: hWB CD69 EC50
pEC50: −log10 of the molar value.
readout_label: pEC50

{"columns": ["molecule", "readout_value"],
 "data": [
  ["COc1cc(C2CCN(C(C)C)CC2)cnc1Cn1ncc2nc(N)nc(NCc3cc(C)on3)c21 [Compound 142]", 8.25],
  ["CCCCNc1nc(N)nc2cnn(Cc3cc(F)c(N4CCN(C(=O)CNC5CCOCC5)CC4)cc3OC)c12 [Compound 195]", 6.89],
  ["CCCCNc1nc(N)nc2c(C)nn(Cc3ncc(C4CCNCC4)cc3OC)c12 [Compound 106]", 6.82],
  ["CCC[C@@H](CCO)Nc1nc(N)nc2cnn(Cc3cnc(C4CCN(C5CCOCC5)CC4)cc3OC)c12 [Compound 168]", 9.33],
  ["CCCCNc1nc(N)nc2c(C)nn(Cc3ncc(C4CCN(C5CCOCC5)CC4)cc3OC)c12 [Compound 121]", 6.92]
]}

1 = CCCCNc1nc(N)nc2cnn(Cc3ncc(C4CCN(CC(N)=O)CC4)cc3OC)c12 [Compound 119]
2 = CCCCNc1nc(N)nc2cnn(Cc3ncc(C4CCN(C(=O)CN5CC6(CN(C)C6)C5)CC4)cc3OC)c12 [Compound 117]
Could you point out whether the larger pEC50 belongs to 1 or to 2 ? Respond with the label that goes with your answer. 1

---

test system: CD69; assay: Induction of CD69 in human whole blood; type: cell-based; settings: Homo sapiens, 17 h, 100% set to 1 uM of resiquimod, average where assay performed multiple times, read-out: hWB CD69 EC50
readout_label: EC50 (nM)

{"columns": ["compound", "readout_label", "readout_value"],
 "data": [
  ["CCCCNc1nc(N)nc2cnn(Cc3ncc(C4CCN(C(=O)CCOC)CC4)cc3OC)c12 [Compound 104]", "EC50", 213],
  ["CCC[C@@H](CCO)Nc1nc(N)nc2cnn(Cc3nc(C4CCN(C)CC4)ccc3OC)c12 [Compound 191]", "EC50", 35.8],
  ["CCC[C@@H](CCO)Nc1nc(N)nc2cnn(Cc3ccc(C4CN(CCO)CCN4)cc3OC)c12 (some centres unmarked) [Compound 181]", "EC50", 4.57],
  ["CCC[C@@H](CCO)Nc1nc(N)nc2cnn(Cc3ncc(C4CCNCC4)cc3OC)c12 [Compound 124]", "EC50", 56.9],
  ["CCC[C@@H](CCO)Nc1nc(N)nc2cnn(Cc3ccc(C4CCCN4)cc3OC)c12 (some centres unmarked) [Compound 175]", "EC50", 0.91]
]}

A = CCC[C@@H](CCO)Nc1nc(N)nc2cnn(Cc3ncc(C4CCN(C5CC6(COC6)C5)CC4)cc3OC)c12 [Compound 148]
B = CCC[C@@H](CCO)Nc1nc(N)nc2cnn(Cc3ncc(N4CCNCC4)cc3OC)c12 [Compound 171]
C = CCCCNc1nc(N)nc2cnn(Cc3ncc(C4CCN(C(=O)CN(C)C)CC4)cc3OC)c12 [Compound 128]
Order field: EC50 | Direction: descending (largest first) # output: labels, in the requested order B, C, A

---

Target: human TLR7 (Homo sapiens, UniProt Q9NYK1)
Sequence (Q9NYK1 27-1049): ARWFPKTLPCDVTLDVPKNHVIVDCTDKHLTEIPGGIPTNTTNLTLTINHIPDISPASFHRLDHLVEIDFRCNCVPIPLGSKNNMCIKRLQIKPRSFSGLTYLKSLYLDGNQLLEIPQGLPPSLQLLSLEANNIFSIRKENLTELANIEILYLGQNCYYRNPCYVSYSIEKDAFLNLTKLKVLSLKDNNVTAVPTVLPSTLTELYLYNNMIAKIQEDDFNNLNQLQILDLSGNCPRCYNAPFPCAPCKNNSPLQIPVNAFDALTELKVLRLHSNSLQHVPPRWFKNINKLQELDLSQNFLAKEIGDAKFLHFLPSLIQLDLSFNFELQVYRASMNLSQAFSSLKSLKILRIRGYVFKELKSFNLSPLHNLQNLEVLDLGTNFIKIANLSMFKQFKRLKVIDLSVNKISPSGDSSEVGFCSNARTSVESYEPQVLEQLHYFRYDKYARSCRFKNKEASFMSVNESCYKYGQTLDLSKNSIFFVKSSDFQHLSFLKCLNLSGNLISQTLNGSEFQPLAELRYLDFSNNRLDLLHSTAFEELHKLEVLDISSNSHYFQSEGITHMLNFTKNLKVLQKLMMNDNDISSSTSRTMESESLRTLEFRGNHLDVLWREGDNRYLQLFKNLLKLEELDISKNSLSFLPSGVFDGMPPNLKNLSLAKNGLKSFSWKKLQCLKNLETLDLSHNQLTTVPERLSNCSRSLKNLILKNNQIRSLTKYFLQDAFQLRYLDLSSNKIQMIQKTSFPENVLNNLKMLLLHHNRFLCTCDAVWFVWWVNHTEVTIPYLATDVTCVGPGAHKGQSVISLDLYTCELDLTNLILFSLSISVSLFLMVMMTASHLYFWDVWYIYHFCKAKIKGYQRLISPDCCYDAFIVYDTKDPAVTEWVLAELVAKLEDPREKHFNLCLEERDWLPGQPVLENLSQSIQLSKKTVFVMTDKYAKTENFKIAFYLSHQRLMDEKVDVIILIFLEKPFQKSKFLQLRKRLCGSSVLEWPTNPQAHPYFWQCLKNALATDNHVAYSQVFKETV
Assay: Human TLR7 agonist activity assay (HEK-Blue TLR7 SEAP reporter)
Details: HEK-Blue TLR7 cells, 18 h treatment, average where assay performed multiple times, read-out: hTLR7 Agonism EC50
pEC50: −log10 of the molar value.
readout_label: pEC50

Here's what some known entries look like.
{"columns": ["compound", "pEC50"],
 "data": [
  ["CCCCNc1nc(N)nc2cnn(Cc3ccc(C4CCN(S(C)(=O)=O)CC4)cc3OC)c12", 6.97],
  ["CCC[C@@H](CCO)Nc1nc(N)nc2cnn(Cc3ccc(C4CCCN4)cc3OC)c12 (some centres unmarked)", 8.06],
  ["CCCCNc1nc(N)nc2cnn(Cc3ncc(C4CCN(CC(=O)N(C)C)CC4)cc3OC)c12", 7.10],
  ["CCCCNc1nc(N)nc2cnn(Cc3ncc(C4CCN(S(C)(=O)=O)CC4)cc3OC)c12", 6.69],
  ["CCC[C@@H](CCO)Nc1nc(N)nc2cnn(Cc3ncc(C4CCCNC4)cc3OC)c12 (single isomer, unassigned)", 6.59]
]}

I = COc1cc(C2CCN(C3CNC3)CC2)cnc1Cn1ncc2nc(N)nc(NCc3cc(C)on3)c21
II = CCCCNc1nc(N)nc2cnn(Cc3ncc(C4CCN(C(=O)CCO)CC4)cc3OC)c12
III = CCCCNc1nc(N)nc2cnn(Cc3ncc(C4CCN(Cc5ncn(C)n5)CC4)cc3OC)c12
Arrange these 3 compounds in increasing order of pEC50. # output: labels, in the requested order II, I, III

FYI, the data here is from patent US20230144824A1.
